- assayed-system: Tissue-type plasminogen activator (Homo sapiens, UniProt P00750)
- Sequence (P00750 whole entry): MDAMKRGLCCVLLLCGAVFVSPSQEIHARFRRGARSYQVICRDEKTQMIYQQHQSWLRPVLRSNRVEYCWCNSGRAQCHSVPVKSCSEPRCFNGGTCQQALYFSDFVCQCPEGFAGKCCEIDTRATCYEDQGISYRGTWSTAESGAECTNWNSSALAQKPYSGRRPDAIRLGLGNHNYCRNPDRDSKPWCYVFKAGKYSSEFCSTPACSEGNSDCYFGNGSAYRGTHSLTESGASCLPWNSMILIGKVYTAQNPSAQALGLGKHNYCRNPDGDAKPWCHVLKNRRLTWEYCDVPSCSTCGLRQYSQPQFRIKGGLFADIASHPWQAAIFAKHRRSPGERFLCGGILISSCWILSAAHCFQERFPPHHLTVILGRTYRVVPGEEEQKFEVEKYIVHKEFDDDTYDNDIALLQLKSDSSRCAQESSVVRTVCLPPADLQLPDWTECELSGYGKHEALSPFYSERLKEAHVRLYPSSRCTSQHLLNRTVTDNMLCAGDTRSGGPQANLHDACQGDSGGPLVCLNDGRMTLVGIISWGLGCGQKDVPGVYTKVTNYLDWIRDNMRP
measurement-name: Ki

Req: I'd like to know its Ki. The compound in question is N=C(N)Nc1ccc(CC(=O)c2ccccc2)cc1
Resp: > 1000 µM
